experiment: in vitro; details: human
I'd be grateful if you could share measured CC50 for these entries.
Answers are plain numbers, in µM.

Batch request: CC50 per item, same order as input.
1. CC(=O)OC[C@H]1O[C@@H](n2cc(CNC(=O)[C@H]3O[C@@H](n4ccc(=O)[nH]c4=O)[C@@H]4OC(C)(C)O[C@@H]43)nn2)[C@H](OC(C)=O)[C@@H](OC(C)=O)[C@@H]1OC(C)=O
2. CC(=O)OC[C@H]1O[C@@H](n2cc(CNC(=O)[C@H]3O[C@@H](n4ccc(=O)[nH]c4=O)[C@H](O[Si](C)(C)C(C)(C)C)[C@@H]3O[Si](C)(C)C(C)(C)C)nn2)[C@H](OC(C)=O)[C@@H](OC(C)=O)[C@H]1OC(C)=O
3. CC(=O)OC[C@H]1O[C@@H](OCc2cn(C[C@H]3O[C@@H](n4ccc(=O)[nH]c4=O)[C@@H]4OC(C)(C)O[C@@H]43)nn2)[C@H](OC(C)=O)[C@@H](OC(C)=O)[C@H]1OC(C)=O
4. CC(=O)OC[C@H]1O[C@@H](NC(=O)[C@H]2O[C@@H](n3ccc(=O)[nH]c3=O)[C@@H]3OC(C)(C)O[C@@H]32)[C@H](OC(C)=O)[C@@H](OC(C)=O)[C@@H]1OC(C)=O
5. CC(=O)OC[C@H]1O[C@@H](n2cc(COC[C@H]3O[C@@H](n4ccc(=O)[nH]c4=O)[C@H](O[Si](C)(C)C(C)(C)C)[C@@H]3O[Si](C)(C)C(C)(C)C)nn2)[C@H](OC(C)=O)[C@@H](OC(C)=O)[C@H]1OC(C)=O
6. CC(=O)OC[C@H]1O[C@@H](n2cc(CNC(=O)[C@H]3O[C@@H](n4ccc(=O)[nH]c4=O)[C@H](O[Si](C)(C)C(C)(C)C)[C@@H]3O[Si](C)(C)C(C)(C)C)nn2)[C@H](OC(C)=O)[C@@H](OC(C)=O)[C@@H]1OC(C)=O

RESULT:
[136, 77, 157, 129, 116, 69]

Batch request: CC50 per item, same order as input.
1. CC1(C)O[C@@H]2[C@H](O1)[C@@H](C(=O)N[C@@H]1O[C@H](COCc3ccccc3)[C@@H](OCc3ccccc3)[C@H](OCc3ccccc3)[C@H]1OCc1ccccc1)O[C@H]2n1ccc(=O)[nH]c1=O
2. CC(=O)OC[C@H]1O[C@@H](OCc2cn(C[C@H]3O[C@@H](n4ccc(=O)[nH]c4=O)[C@@H]4OC(C)(C)O[C@@H]43)nn2)[C@H](OC(C)=O)[C@@H](OC(C)=O)[C@@H]1OC(C)=O
3. CC(=O)OC[C@H]1O[C@@H](NC(=O)[C@H]2O[C@@H](n3ccc(=O)[nH]c3=O)[C@@H]3OC(C)(C)O[C@@H]32)[C@H](OC(C)=O)[C@@H](OC(C)=O)[C@H]1OC(C)=O
4. CC(=O)OC[C@H]1O[C@@H](n2cc(COC[C@H]3O[C@@H](n4ccc(=O)[nH]c4=O)[C@H](O[Si](C)(C)C(C)(C)C)[C@@H]3O[Si](C)(C)C(C)(C)C)nn2)[C@H](OC(C)=O)[C@@H](OC(C)=O)[C@@H]1OC(C)=O
5. CC(=O)OC[C@H]1O[C@@H](n2cc(CNC(=O)[C@H]3O[C@@H](n4ccc(=O)[nH]c4=O)[C@@H]4OC(C)(C)O[C@@H]43)nn2)[C@H](OC(C)=O)[C@@H](OC(C)=O)[C@H]1OC(C)=O

RESULT:
1: 153; 2: 173; 3: 114; 4: 184; 5: 137
